Below, each entry is listed alongside its reported IC50.
# Tested on: NCI-H226 cells
# TEST_PROTOCOL: Viability assay in NCI-H226 (Yap-dependent) cells, CyQUANT
# Format: cell-based
# CONDITION_SET: Homo sapiens, NCI-H226 YAP dependent cell line, 96 hour incubation, group symbols

Known IC50 results, listed for orientation:
INSERT INTO results (compound, result) VALUES
  ('Cn1cc2c3cc(-c4noc(=O)[nH]4)sc3n(-c3ccc(C(F)(F)F)cc3)c2n1 [Compound 80]', '100 to 1000 nM'),
  ('Cn1cc2c3cc(C(=O)N[C@@H](CO)c4ccccn4)sc3n(-c3ccc(OC(F)F)cn3)c2n1 [Compound 122]', '1 to 100 nM'),
  ('Cn1ccc([C@@H](CO)NC(=O)c2cc3c4cn(C)nc4n(-c4ccc(C(F)(F)F)cc4)c3s2)n1 (single isomer, unassigned) [Compound 130]', '1 to 100 nM'),
  ('Cn1cc2c3cc(C(=O)O)sc3n(-c3ccc(C(F)(F)F)cc3)c2n1 [Compound 19]', '1 to 100 nM'),
  ('Cn1cc2c3cc(C(=O)N4CC[C@@H](O)C4)sc3n(-c3ccc(C(F)(F)F)cc3)c2n1 [Compound 67]', '100 to 1000 nM');

Okay, next one:
So the reported IC50 for Cn1cc2c3cc(C(=O)O)sc3n(-c3ccc(SC(F)(F)F)cc3)c2n1 [Compound 40] , on NCI-H226 cells, turned out to be 1 to 100 nM
